Tested on: SK-MEL-5 melanoma
assay-details: NCI tumour cell line growth inhibition, 48 h
outcome-measure: GI50

>>> test_value("O=C(NCc1cn(Cc2cccc(Oc3ccccc3)c2)nn1)c1cccnc1NCc1ccc(Cl)cc1")
"2.53 µM"
>>> test_value("C/C(=N\\NC(=S)N1CCCC1)c1ccccn1")
"0.0348 µM"
>>> test_value("N.N.N.N.O=S([O-])[O-].[Co+3].[N-]=[N+]=[N-]")
"> 100 µM"
>>> test_value("COC(=O)N[C@@H](C)CNc1nccc(-c2cn(C(C)C)nc2-c2cc(Cl)cc(NS(C)(=O)=O)c2F)n1")
"> 100 µM"
>>> test_value("Cc1cc(C)c(-c2c(O)c(Br)c(-c3c(C)cc(C)c(Br)c3C)c(O)c2Br)c(C)c1Br")
"1.77 µM"

Below are 4 compounds. Give each one its GI50.
1. CC(C)(O)c1cc(Nc2cc(Oc3cn(C4CC4)nc3C3CCOCC3)ccn2)ccn1
2. COC1CCC(OC)C(c2nc3sccn3c2/C=N/N=C(N)N)C1 (centres undefined)
3. Fc1ccc(-c2ncn(C3CCNCC3)c2-c2ccnc(Oc3ccc(Cl)cc3)n2)cc1
4. S=C(Nc1ccc(-c2nc3ccccc3s2)cc1)Nc1ccc(-c2nc3ccccc3s2)cc1

*A*
["38.7 µM", "20.2 µM", "3.22 µM", "13.5 µM"]

Below are 5 compounds. Give each one its GI50.
1. COc1ccc(N=c2nc3sc4cc(Cl)ccc4n3c(N)c2C#N)cc1
2. COc1ccc(C(=O)Cn2c(C(=O)c3ccc(Cl)cc3)nc(-c3ccccc3)c2-c2ccccc2)cc1
3. Cn1cc(-c2csc(-c3ccc(Cl)cc3)n2)c2cccnc21
4. CCN(CC)c1ccc(/C=N/N=C(N)N)cc1
5. C=C(CN1CCN(c2ccccn2)CC1)c1ccc(C(=O)Nc2ccccc2N)cc1

*A*
1.64 µM
> 100 µM
13.9 µM
3.16 µM
0.726 µM

---

System: NCI-H226 lung
assay-details: NCI tumour cell line growth inhibition, 48 h
Where a SMILES comes first, the peptide text is derived from it. Bridges are numbered along the chain shown (N, C = ends).
Would you kindly list TGI for each of these compounds?

>>> test_value("Oc1c(NCn2nc(CCCCCCCCc3nn(CNc4ccc5ccccc5c4O)c(=S)o3)oc2=S)ccc2ccccc12")
"> 100 µM"
>>> test_value("C/C(CC(O)(C(F)(F)F)C(F)(F)F)=N\\O")
"> 10 µM"
>>> test_value("CCOC(=O)/C=C(/C(=O)OCC)n1cc(C)c(=O)n(Cc2cn(CCCCOC(C)=O)nn2)c1=O")
"37.1 µM"

Below are 4 compounds. Give each one its TGI.
1. O=C(CC1(O)CCCCC1)OC1CCCC1
2. CCOC(=N)CC(=O)Nc1ccccc1CC
3. O=Cc1c2c(cc3c1CC1(C3)Cc3cc4c(c(C=O)c3C1)CCC4)CCC2
4. CN(Cc1cnc2nc(N)nc(N)c2n1)c1c(Cl)cc(C(=O)NC(CCC(=O)O)C(=O)O)cc1Cl (stereo not given)

*A*
["> 100 µM", "> 100 µM", "> 100 µM", "> 100 µM"]

Below are 8 compounds. Give each one its TGI.
1. CSCc1ncc(-c2ccc(C(F)(F)F)cc2)c(NC2CCCCCC2)n1
2. CCOC(=O)c1sc(NC(=O)COc2ccc(/C=C3\CCc4cc(OC)ccc4C3=O)cc2)nc1C
3. O=C(O)C(Cc1ccccc1)N1C(=O)/C(=C/C(Cl)=C/c2ccc([N+](=O)[O-])cc2)SC1=S (stereo not given)
4. CCNC1CC(n2cc(C)c(=O)[nH]c2=O)OC1CO (stereo not given)
5. OC[C@H]1N[C@H](CO)[C@@H](O)[C@H]1O
6. Cc1cccc(NC(=S)Nc2cccc(Cl)c2)n1
7. Cc1cc2ccccc2oc(=O)/c1=N\Nc1ccccc1
8. CCCCn1c(-c2ccccc2)cs/c1=N\NC(=O)Cn1c(C)nc2ccccc21

*A*
1. > 10 µM
2. 27.3 µM
3. 3.27 µM
4. > 100 µM
5. > 100 µM
6. > 100 µM
7. > 100 µM
8. > 100 µM

Below are 8 compounds. Give each one its TGI.
1. COC(=O)C1CCC(=O)NCCCCC(NC(=O)C(N)CC(=O)O)C(=O)N1 (stereo not drawn) (H-Asp-Lys-Glu-OMe; lactam 2-3; configuration not given here)
2. COC1(C)CCC(OS(C)(=O)=O)CO1 (stereo not given)
3. O=C(Nc1ccccc1)N1C(c2ccccc2)=N[C@@H](c2ccccc2)[C@@H]1c1ccccc1
4. COc1c(OC2OC(C)C(O)C(O)C2O)c(OC)c2oc(-c3ccc(O)cc3)cc(=O)c2c1O (stereo not given)
5. COc1ccc(C(=O)c2ccccc2)c(O)c1
6. S=C(Nc1ccc(-c2nc3ccccc3s2)cc1)Nc1ccc(-c2nc3ccccc3s2)cc1
7. Cc1ccc(N2Cc3c(ccc4ccccc34)OP2(=S)N2CCCC2)cc1 (stereo not given)
8. NCCOCCOCC(=O)O

*A*
1: > 100 µM; 2: > 100 µM; 3: 46.4 µM; 4: > 100 µM; 5: > 100 µM; 6: 38.8 µM; 7: > 100 µM; 8: > 100 µM

Below are 5 compounds. Give each one its TGI.
1. Nc1ccnc2c1ncn2[C@H]1C[C@H](O)[C@@H](CO)O1
2. O=C1c2ccccc2-c2c1c1ccccc1c(=O)n2CCNCCNCCNCCNCCn1c2c(c3ccccc3c1=O)C(=O)c1ccccc1-2
3. COc1ccc(-c2cn3ccnc3c(-c3ccc(Cl)cc3)n2)cc1
4. O=C(NNC(=O)c1ccncc1)C(=O)Nc1cc(Cl)c(Cl)cc1Cl
5. CC(C)(C)OC(=O)NCCCCCCCCCCCCn1c2c(c3ccccc3c1=O)C(=O)c1ccccc1-2

*A*
["> 100 µM", "1.95 µM", "> 100 µM", "> 100 µM", "> 100 µM"]

Below are 2 compounds. Give each one its TGI.
1. C[C@@H]([C@H]1CC[C@@]2(C)[C@@H]3CC[C@@H]4C(=CC3=CC[C@]12C)CC[C@H](N(C)C)C4(C)C)N(C)C
2. O=C1N=C2N=C(c3ccc(Cl)cc3)N(c3ccc(Cl)cc3)N2Sc2ccccc21

*A*
> 100 µM
> 100 µM

---

Tested on: HT29 colon
assay-details: NCI tumour cell line growth inhibition, 48 h
Would you kindly list GI50 for each of these compounds?

Guide cases for GI50, answers given:
>>> test_value("COc1cc(C=NCC(=O)CSC(c2ccccc2)c2ccccc2)ccc1O")
"15.3 µM"
>>> test_value("COc1ccc(N=c2nc3sc4cc(Cl)ccc4n3c(N)c2C#N)cc1")
"1.31 µM"
>>> test_value("N.N.N.N.O=S([O-])[O-].[Co+3].[N-]=[N+]=[N-]")
"> 100 µM"

Below are 2 compounds. Give each one its GI50.
1. COC1CCC(OC)C(c2nc3sccn3c2/C=N/N=C(N)N)C1 (stereo not given)
2. COc1cccc(C2C(C#N)=C(N)Oc3cc(OCCCCCC[P+](c4ccccc4)(c4ccccc4)c4ccccc4)ccc32)c1 (stereo not given)

*A*
1. 2.59 µM
2. 0.613 µM

Below are 5 compounds. Give each one its GI50.
1. C=C(CN1CCc2ccccc2C1)c1ccc(CCCC(=O)Nc2ccccc2N)cc1
2. CCOc1ccc2cc(-c3nn(CC4CCN(C)CC4)c4ncnc(N)c34)ccc2c1
3. S=C(Nc1ccc(-c2nc3ccccc3s2)cc1)Nc1ccc(-c2nc3ccccc3s2)cc1
4. COc1ccc(-c2cn3ccnc3c(-c3ccc(Cl)cc3)n2)cc1
5. CN(C)CCN=c1nc2c(c(N)n1-c1ccccc1)c(=S)n(-c1ccccc1)c(=S)n2-c1ccccc1

*A*
["13.1 µM", "7.01 µM", "20.7 µM", "6.66 µM", "1.48 µM"]

---

Would you kindly list TGI for each of these compounds?
Test system: SK-OV-3 ovarian
assay-details: NCI tumour cell line growth inhibition, 48 h

Guide cases for TGI, answers given:
>>> test_value("C=CCN1C(=O)C[C@H](Cc2ccccc2)NC(=O)C[C@H](Cc2ccccc2)N(CC=C)C(=O)C[C@H](Cc2ccccc2)NC(=O)C[C@@H]1Cc1ccccc1")
"> 100 µM"
>>> test_value("COc1ccc(C(=O)c2ccccc2)c(O)c1")
"> 100 µM"
>>> test_value("CCCCC[C@H]1C/C=C2/C(=O)C=C[C@@H]2C/C=C\\CCCC(=O)O1")
"6.11 µM"
>>> test_value("O=C1N=C2N=C(c3ccc(Cl)cc3)N(c3ccc(Cl)cc3)N2Sc2ccccc21")
"> 100 µM"
>>> test_value("O=C(O)CCN1C(=S)CSC1=S")
"> 100 µM"

Below are 5 compounds. Give each one its TGI.
1. COc1ccc(C(=O)Cn2c(C(=O)c3ccc(Cl)cc3)nc(-c3ccccc3)c2-c2ccccc2)cc1
2. COc1ccc(N=c2nc3sc4cc(Cl)ccc4n3c(N)c2C#N)cc1
3. O=C(NCc1cn(Cc2cccc(Oc3ccccc3)c2)nn1)c1cccnc1NCc1ccc(Cl)cc1
4. CCOP(=O)(OCC)C(c1ccccc1)N(C(=O)NC(F)(F)F)c1ccc(C)cc1 (stereo not given)
5. COC(=O)CCCc1nc2ccccc2nc1N=Nc1ccccc1

*A*
["> 100 µM", "> 100 µM", "69.2 µM", "> 100 µM", "> 100 µM"]
